Target: T1, human IL-4Rα (hIL-4Rα) monomeric protein (human, UniProt P24394 26-232, limits assumed)
T1 construct: also called hIL-4Rα antigen; barcoded hIL-4Rα
Test: Biacore (SPR)
PARAMETER MEASURED: log10 of Kd (log10 of the value in µM)
Quick note: numbers are log10 of Kd, with µM as the unit.

The cases that follow already have their log10 of Kd on record.
- Table 1 Line # 32 antibody (SP_B_cell) (antibody, human IgG4, V domains shown, Cloned with human IgG4/human Igk constants for Kd; barcode counts are of the source cell's own IgG) VH: EVQLVESGGGLVQPGRSLRLSCAASGFTFDDYAMHWVRQAPGKGLEWVSGVNWNGVSLGYADSVKGRFTISRDNAKNSLYLQMNSLRAEDTAFYYCAKDSGSYHYYYGMDGWGQGTTVTVSS VL: DIQMTQSPSSLSASVGDRVTITCRASQGIRNDLGWYQQKPGKDPKRLIFAATNLHGGVPSRFSGGVSGTEFTLTISSLQPEDFATYYCLQHNSYPLTFGGGTKVEIK: -1.24
- Table 1 Line # 1 antibody (BM_Plasma_cell) (antibody, human IgG4, V domains shown, Cloned with human IgG4/human Igk constants for Kd; barcode counts are of the source cell's own IgG) VH: EVQLVESGGGLVKPGGSLRLSCAASGFTFSSYSMNWVRQAPGKGLEWVSSISSSSSYIYYADSVKGRFTISRDNAKNSLYLQMNSLRAEDTAVYYCASLAARPFWGQGTMVTVSS VL: DIQMTQSPSSVSASVGDRVTITCRASQGISSWLAWYQQKPGRAPKLLIYAASSLQSGVPSRFSGSGSGTDFTLTISSLQPEDFATYYCQQANSFPLTFGGGTKVEIK: -0.38
- Table 1 Line # 18 antibody (BM_Plasma_cell) (antibody, human IgG4, V domains shown, Cloned with human IgG4/human Igk constants for Kd; barcode counts are of the source cell's own IgG) VH: EVQLVQSGAEVKKPGESLKISCKGSGYRFTTNWIGWVRQMPGKGLEWMGIIYPDDSDTRYSPSFQGQVTISADKSINTAYLHWNSLKSSDTAIYYCARGANWFDPWGQGTLVTVSS VL: EIVLTQSPGILSLSPGKRATLSCRASQSVSSNFLAWYQQKPGQAPRLLIYGTSSRANGIPDRFSGSGSGTDFTLTISGLEPEDFAEYYCQQYGSSVTFGQGTRLEIK: -1.38
- Table 1 Line # 6 antibody (BM_Plasma_cell) (antibody, human IgG4, V domains shown, Cloned with human IgG4/human Igk constants for Kd; barcode counts are of the source cell's own IgG) VH: EVQLVESGGDLVQPGRSLRLSCAASGFTFDDYAMHWVRQAPGKGLEWVSGISWNGNSLGYVDSVKGRFTVSRDNAKNSLYLQMNSLRAEDTALYYCTKDTGSYHSYYGLDVWGQGTTVTVSS VL: DIQMTQSPSSLSASVGDRVTITCRASQGIRNDLGWYQQKPGKAPKRLIYAASSLPSGVPSRFSGSGSGTEFTLTISSLQPEDFATYYCLQLNTYPLTFGGGTKVEIK: -0.87

Consider now this further binder.
According to the records, this binder Table 1 Line # 13 antibody (BM_Plasma_cell) (antibody, human IgG4, V domains shown, Cloned with human IgG4/human Igk constants for Kd; barcode counts are of the source cell's own IgG) VH: EVQLVESGGEMIRPGGSLRLSCAASGFIFDDYGMSWIRQAPGKGLEWVSGINWNGGHTGYSDSVKGRFTISRDNAKNSLYLQMNSLRAEDTALYHCVRDSSSSWYGVFDYWGQGTLVTVSS VL: DIQMTQSPSSLSASVGDRVTITCRASQGISNSLAWYQQKPGTVPKLLIFAASTLLSGIPSRFSGGGSGTDFTLTISSLQPEDVATYYCQNYNSAPRTFGQGTKVEIK displays log10 of Kd of -1.24
